Ref: the supplement of paper PMC10201428

Tested on: VchCAST RNA-guided transposition machinery (E. coli BL21(DE3) host, lacZ target)
Experiment: relative integration efficiency (T-LR orientation) vs wild-type transposon end (log2 (normalized fold change)); transposon end mutated: right end (5 bp flank + 75 bp right end); higher = more efficient transposition
// map relative integration efficiency (log2) onto a label; ranges bucket 1 = under -0.5, bucket 2 = from -0.5 up to 0.02, bucket 3 = 0.02 and over

sequenceEntry	assignedLabel
ACATTTGTTGATACACCCATAAATTGATATTGCCACCCATAAATTGATAATTATCACACCCATAAATTGATATTGCCTCTGATCATAGTCAGACCAACATTGCTACGACCCGTATTCGCACCGACAC	bucket 2
AACTTTGTTGATACAACCATAAAATGATAATTACACCCATAAATTGATAATTATCACACCCATAAATTGATATTGCCTCTGATCATAGTCAGACCAACATTGCTACGACCCGTATTCGCACCGACAC	bucket 3
ACATTTGTTGATACAACCATAAGTTGATATTTTCACCCATAAATTGATAATTATCACAACCATAAGTTGATATTTTCTCTGATCATAGTCAGACCAACATTGCTACGACCCGTATTCGCACCGACAC	bucket 2
ACATTTGTTGATACAACCATAAAATGATAATTACAGGCATAAATTGATAATTATCACACCCATAAATTGATATTGCCTCTGATCATAGTCAGACCAACATTGCTACGACCCGTATTCGCACCGACAC	bucket 1
ACATTTGTTGTATGAACCATAAAATGATAATTACACCCATAAATTGATAATTATCACACCCATAAATTGATATTGCCTCTGATCATAGTCAGACCAACATTGCTACGACCCGTATTCGCACCGACAC	bucket 1
ACATTTGTTGATACAACCATAAGTTGATATTTTCACCCATAAATTGATAATTATCACAACCATAAAGTGATATTTACTCTGATCATAGTCAGACCAACATTGCTACGACCCGTATTCGCACCGACAC	bucket 2
ACATTTGTTGATACAACCATAAAATGATAATCACCCATAAATTGATAATTATCACACCCATAAATTGATATTGCCTCTGATCATAGTCAGACCAACATTGCTACGACCCGTATTCGCACCGACACTG	bucket 1
ACATTTGTTGATACAACCATAAAATGATAATTACACCCATAAATTGATAATTATCACACCCATAAATTGATATTGCCTCTGTTTATGGCTAGCTCAGTCCTAGGTACAATGCTAGCCGCACCGACAC	bucket 2
ACATTTGTTGATACAACCATAAAATGATAATTACACCCATAAATTGATAATTATACACAAACGCCCGGTCGCGGTAAGAGGATCATAGTCAGACCAACATTGCTACGACCCGTATTCGCACCGACAC	bucket 3
ACATTTGTTGATACAACCATAAGTTGATATTTTCAACCATAAAATGATAATTATCACACCCATAAATTGATAATTACTCTGATCATAGTCAGACCAACATTGCTACGACCCGTATTCGCACCGACAC	bucket 2
ACATTTGTTGATACAACCATATAATGATAATAACACCCATAAAATGATAATTATCACACCCAATTTAACTATAACGCTCTGATCATAGTCAGACCAACATTGCTACGACCCGTATTCGCACCGACAC	bucket 3
ACATTTGTTGATACAACCATAAAATGATAATTACACCCATAAATTGATAATTATCACACCCATAAATTGATATTGCAGCTGATCATAGTCAGACCAACATTGCTACGACCCGTATTCGCACCGACAC	bucket 2
ACATTTGTTGATACAACCATAAAATGATAATTAATAATTATTTATAATCCACCCATAAATTGATAATTATCACACCCATAAATTGATATTGCCTCTGATCATAGTCAGACCAACATTGCTACGACCC	bucket 3
ACATTTGTTGATACAACCATAAGTTGATATTTTCACCCATAAATTGATATTGCTCACAACCATAAGTTGATATTTTCTCTGATCATAGTCAGACCAACATTGCTACGACCCGTATTCGCACCGACAC	bucket 2
ACATTTGTGGATACAACCATAAAATGATAATTACACCCATAAATTGATCATTATCACCCCCAATTTAACTATAACGCTCTGATCATAGTCAGACCAACATTGCTACGACCCGTATTCGCACCGACAC	bucket 3
ACATTTGTTGATACCACCATCAAATGATAATTCCACCCATACATTGATAATTATCACACCCAATTTAACTATAACGCTCTGATCATAGTCAGACCAACATTGCTACGACCCGTATTCGCACCGACAC	bucket 1
ACATTTGTTGATACAACCATTAAATGATAATTACACCCAAAAATTGATAATTATCACACCCAATTTAACTATAACGCTCTGATCATAGTCAGACCAACATTGCTACGACCCGTATTCGCACCGACAC	bucket 3
ACATTTGTTGATACACCCATAAATTGATAATTACAACCATAAAATGATAATTATCACAACCATAAAGTGATATTTACTCTGATCATAGTCAGACCAACATTGCTACGACCCGTATTCGCACCGACAC	bucket 1
ACATTTGTAAATAAAACCATACGTTGATTTTACGAAACCATACGCTGAAATAATCACACCCATAAATTGATATTGCCTCTGATCATAGTCAGACCAACATTGCTACGACCCGTATTCGCACCGACAC	bucket 1
ACATTTGTTGATATGTTGACAACCATAAAATGATAATTACACCCATAAATTGATAATTATCACACCCATAAATTGATATTGCCTCTGATCATAGTCAGACCAACATTGCTACGACCCGTATTCGCAC	bucket 1
